Target: CDK4/CyclinD3 (Homo sapiens, UniProt P11802)
Construct: purchased Wuxi Biortus Biosciences Co. Ltd
Sequence (P11802 whole entry, species assumed): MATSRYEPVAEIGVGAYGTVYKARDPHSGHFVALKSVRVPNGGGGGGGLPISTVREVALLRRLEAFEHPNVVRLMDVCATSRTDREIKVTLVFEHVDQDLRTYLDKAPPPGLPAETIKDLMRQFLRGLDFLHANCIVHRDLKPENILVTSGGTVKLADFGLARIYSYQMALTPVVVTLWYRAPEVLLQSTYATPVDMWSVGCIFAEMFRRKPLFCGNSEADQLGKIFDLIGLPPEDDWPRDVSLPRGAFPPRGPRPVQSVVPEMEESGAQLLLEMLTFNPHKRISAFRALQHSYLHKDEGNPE
Sequence (P30281 whole entry partner, species assumed): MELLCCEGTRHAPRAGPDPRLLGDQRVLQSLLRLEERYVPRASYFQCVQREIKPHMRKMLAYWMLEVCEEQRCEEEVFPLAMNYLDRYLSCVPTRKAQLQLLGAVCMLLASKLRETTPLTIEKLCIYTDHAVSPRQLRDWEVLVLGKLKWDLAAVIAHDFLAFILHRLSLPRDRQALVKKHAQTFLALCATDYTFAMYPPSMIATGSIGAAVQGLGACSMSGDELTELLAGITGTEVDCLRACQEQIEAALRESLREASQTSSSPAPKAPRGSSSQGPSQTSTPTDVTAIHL
Assay: In-vitro kinase inhibitory activity, CDK4/CyclinD3 (Caliper EZ Reader II mobility shift)
Type: biochemical
Details: CDK4/CyclinD3 20 nM, ATP 2 mM, Peptide 1 μM, 27° C., 180 min; read-out: IC50 (half maximal inhibitory concentration, nM) CDK4
Procedure: The final volume for assay was 16 μL, and the reaction temperature was 27° C. CDK4/CyclinD3 was produced by Wuxi Biortus Biosciences Co. Ltd. The concentration of the kinase was determined by the results of the optimization experiment. […] The final concentrations of the reagents in the assay were as follows. […] The reaction mixture was analyzed on a Caliper EZ Reader II by electrophoretic separation of the fluorescent substrate and the phosphorylated product. […]
Counter-ions that a name gives are not always drawn.
The threshold is 50 nM. Values of IC50 beneath it are tagged rule met; values meeting or exceeding it are tagged rule not met.

Below are worked cases with known answers.
[
  {
    "Molecule": "COc1cc(N2CCN(CCN3CCN(c4ccc(Nc5ncc6c(C)c(C(C)=O)c(=O)n(C7CCCC7)c6n5)nc4)CC3)CC2)cc2c1C(=O)N(C1CCC(=O)NC1=O)C2 (centres unmarked) [Compound 17, dihydrochloride]",
    "Category label": "rule not met"
  },
  {
    "Molecule": "CC(=O)c1c(C)c2cnc(Nc3ccc(N4CCN(CCN5CCC(CC6CCN(c7ccc8c(c7Cl)CN(C7CCC(=O)NC7=O)C8=O)CC6)CC5)CC4)cn3)nc2n(C2CCCC2)c1=O (centres unmarked) [Compound 39, dihydrochloride]",
    "Category label": "rule not met"
  },
  {
    "Molecule": "CC(=O)c1c(C)c2cnc(Nc3ccc(N4CCN(CCN5CCC(OC6CCN(c7ccc8c(c7)CN(C7CCC(=O)NC7=O)C8=O)CC6)CC5)CC4)cn3)nc2n(C2CCCC2)c1=O (centres unmarked) [Compound 9, dihydrochloride]",
    "Category label": "rule met"
  },
  {
    "Molecule": "COc1c(N2CCN(CCN3CCN(c4ccc(Nc5ncc6c(C)c(C(C)=O)c(=O)n(C7CCCC7)c6n5)nc4)CC3)CC2)ccc2c1CN(C1CCC(=O)NC1=O)C2=O (centres unmarked) [Compound 19, dihydrochloride]",
    "Category label": "rule not met"
  }
]

-- ask Does this molecule meet the criterion IC50 < 50 nM? CC(=O)c1c(C)c2cnc(Nc3ccc(N4CCN(CCN5CCN(c6ccc7c(c6)CN(C6CCC(=O)NC6=O)C7=O)CC5)CC4)cn3)nc2n(C2CCCC2)c1=O.Cl.Cl (single isomer, unassigned) [Compound 2, dihydrochloride]
-- reply rule met

* * *

Consider the following molecules and their measured IC50 readings.
Molecular target: CDK9 (Homo sapiens, UniProt P50750)
Sequence (P50750 whole entry, species assumed): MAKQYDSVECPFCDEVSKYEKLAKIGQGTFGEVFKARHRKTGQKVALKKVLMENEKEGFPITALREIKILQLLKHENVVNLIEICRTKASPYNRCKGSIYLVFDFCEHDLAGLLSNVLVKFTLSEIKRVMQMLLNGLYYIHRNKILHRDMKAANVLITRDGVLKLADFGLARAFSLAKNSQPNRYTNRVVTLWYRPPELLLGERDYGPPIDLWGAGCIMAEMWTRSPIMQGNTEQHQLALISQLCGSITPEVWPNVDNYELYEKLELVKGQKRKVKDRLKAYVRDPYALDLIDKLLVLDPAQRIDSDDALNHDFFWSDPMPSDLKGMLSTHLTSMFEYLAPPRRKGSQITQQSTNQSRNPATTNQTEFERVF
Sequence (O60563 whole entry partner, species assumed): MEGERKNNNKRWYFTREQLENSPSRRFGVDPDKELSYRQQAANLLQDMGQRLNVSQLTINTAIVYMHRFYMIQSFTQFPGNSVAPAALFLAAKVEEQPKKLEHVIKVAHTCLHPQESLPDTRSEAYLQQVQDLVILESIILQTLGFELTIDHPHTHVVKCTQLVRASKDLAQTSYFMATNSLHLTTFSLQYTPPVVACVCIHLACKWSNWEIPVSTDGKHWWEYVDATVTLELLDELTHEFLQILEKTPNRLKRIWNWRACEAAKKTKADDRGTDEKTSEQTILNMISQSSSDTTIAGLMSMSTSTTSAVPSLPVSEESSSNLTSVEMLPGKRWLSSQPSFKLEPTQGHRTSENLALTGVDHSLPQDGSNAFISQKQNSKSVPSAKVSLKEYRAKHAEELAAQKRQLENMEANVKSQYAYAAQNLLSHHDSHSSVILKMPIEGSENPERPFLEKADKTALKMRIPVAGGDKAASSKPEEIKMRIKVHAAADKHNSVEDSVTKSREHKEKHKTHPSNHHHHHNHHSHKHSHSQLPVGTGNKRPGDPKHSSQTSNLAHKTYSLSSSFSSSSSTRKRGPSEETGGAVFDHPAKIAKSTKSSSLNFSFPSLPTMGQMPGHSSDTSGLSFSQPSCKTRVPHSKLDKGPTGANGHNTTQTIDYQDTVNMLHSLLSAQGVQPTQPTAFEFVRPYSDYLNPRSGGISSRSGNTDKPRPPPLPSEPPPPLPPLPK
Experiment: In-vitro kinase inhibitory activity, CDK9 (selectivity)
Format: biochemical
Conditions: read-out: IC50 (half maximal inhibitory concentration, nM) CDK9
Structures can show the parent of a compound that is named as a salt.
Write the number in nM without appending the unit.

Study these solved cases before continuing.
[
  {
    "Molecule": "COc1c(N2CCN(CCN3CCN(c4ccc(Nc5ncc6c(C)c(C(C)=O)c(=O)n(C7CCCC7)c6n5)nc4)CC3)CC2)ccc2c1CN(C1CCC(=O)NC1=O)C2=O (centres unmarked) [Compound 19, dihydrochloride]",
    "Tested on": "CDK9 (Homo sapiens, UniProt P50750)",
    "Endpoint label": "IC50",
    "Experimental value": 5610
  },
  {
    "Molecule": "CC(=O)c1c(C)c2cnc(Nc3ccc(N4CCN(CCN5CCC(CN6CCN(c7ccc8c(c7)CN(C7CCC(=O)NC7=O)C8=O)CC6)CC5)CC4)cn3)nc2n(C2CCCC2)c1=O.Cl.Cl.Cl (single isomer, unassigned) [Compound 4, trihydrochloride]",
    "Tested on": "CDK9 (Homo sapiens, UniProt P50750)",
    "Endpoint label": "IC50",
    "Experimental value": 8640
  },
  {
    "Molecule": "CC(=O)c1c(C)c2cnc(Nc3ccc(N4CCN(CCN5CCC(C(=O)N6CCN(c7ccc8c(c7)CN([C@H]7CCC(=O)NC7=O)C8=O)CC6)CC5)CC4)cn3)nc2n(C2CCCC2)c1=O",
    "Tested on": "CDK9 (Homo sapiens, UniProt P50750)",
    "Endpoint label": "IC50",
    "Experimental value": 3810
  }
]

-- ask # get_value(readout='IC50', item= CC(=O)c1c(C)c2cnc(Nc3ccc(N4CCN(CCN5CCC(CC6CCN(c7ccc8c(c7Cl)CN([C@H]7CCC(=O)NC7=O)C8=O)CC6)CC5)CC4)cn3)nc2n(C2CCCC2)c1=O [Compound 40, dihydrochloride] )
-- reply 6810

-- ask Input CN(C)C(=O)c1cc2cnc(Nc3ccc(N4CCN(CCN5CCC(CN6CCN(c7ccc8c(c7)CN(C7CCC(=O)NC7=O)C8=O)CC6)CC5)CC4)cn3)nc2n1C1CCCC1 (centres unmarked) [Compound 26, trihydrochloride]
-- reply 4000

-- ask Input CC(=O)c1c(C)c2cnc(Nc3ccc(N4CCN(CCN5CCC(CN6CCN(c7ccc8c(c7Cl)CN(C7CCC(=O)NC7=O)C8=O)CC6)CC5)CC4)cn3)nc2n(C2CCCC2)c1=O (centres unmarked) [Compound 36, trihydrochloride]
-- reply 1480

-- ask Input Cc1nc2c(F)cc(-c3nc(Nc4ccc(CN5CCN(CC(=O)N6CCC(C(=O)N7CCN(c8ccc9c(c8)CN([C@H]8CCC(=O)NC8=O)C9=O)CC7)CC6)CC5)cn4)ncc3F)cc2n1C(C)C
-- reply 946

-- ask Input CC(=O)c1c(C)c2cnc(Nc3ccc(N4CCN(CCN5CCC(CC6CCN(c7ccc8c(c7)CN([C@H]7CCC(=O)NC7=O)C8=O)CC6)CC5)CC4)cn3)nc2n(C2CCCC2)c1=O [Compound 38, dihydrochloride]
-- reply 1400

-- ask Input Cc1nc2c(F)cc(-c3nc(Nc4ccc(CN5CCN(CCN6CCN(c7ccc8c(c7)CN(C7CCC(=O)NC7=O)C8=O)CC6)CC5)cn4)ncc3F)cc2n1C(C)C (centres unmarked) [Compound 12, trihydrochloride]
-- reply 688

-- ask Input CC(=O)c1c(C)c2cnc(Nc3ccc(N4CCN(CCCCN5CCC(CN6CCN(c7ccc8c(c7)CN(C7CCC(=O)NC7=O)C8=O)CC6)CC5)CC4)cn3)nc2n(C2CCCC2)c1=O (centres unmarked)
-- reply 5470
